- System: WiDr
- Assay Details: Cytotoxicity in non-NTR-expressing human colon carcinoma cell line (WiDr).
- Assay type: functional, cell-based
Attribute Measured: IC50 (nM)
Your answer is read as nM, so omit the unit and give the number.

COc1cc2cc(C(=O)N3CC(CCl)c4c3cc(NC(=O)OCc3ccc([N+](=O)[O-])cc3OCCO)c3ccccc43)[nH]c2c(OC)c1OC (stereo not given) : 295
CN(C)CCOc1ccc2[nH]c(C(=O)N3CC(CCl)c4c3cc(N)c3ccccc43)cc2c1 (stereo not given) : 6
COc1cc2cc(C(=O)N3CC(CCl)c4c3cc(NC(=O)OCc3ccc([N+](=O)[O-])cc3)c3ccccc43)[nH]c2c(OC)c1OC (stereo not given) : 391
COc1cc2cc(C(=O)N3CC(CCl)c4c3cc(NC(=O)OCc3ccc([N+](=O)[O-])cc3OCCCO)c3ccccc43)[nH]c2c(OC)c1OC (stereo not given) : 191
COc1cc2cc(C(=O)N3CC(CCl)c4c3cc(NC(=O)OCc3ccc([N+](=O)[O-])cc3OCCCN3CCOCC3)c3ccccc43)[nH]c2c(OC)c1OC (stereo not given) : 98
COc1cc2cc(C(=O)N3CC(CCl)c4c3cc(NC(=O)OC(C)c3ccc([N+](=O)[O-])cc3)c3ccccc43)[nH]c2c(OC)c1OC (stereo not given) : 154
COc1cc2cc(C(=O)N3CC(CCl)c4c3cc(N(C)C(=O)OCc3ccc([N+](=O)[O-])cc3)c3ccccc43)[nH]c2c(OC)c1OC (stereo not given) : 101
COCCOc1cc([N+](=O)[O-])ccc1COC(=O)Nc1cc2c(c3ccccc13)C(CCl)CN2C(=O)c1cc2cc(OC)c(OC)c(OC)c2[nH]1 (stereo not given) : 110

Entry COc1cc2cc(C(=O)N3CC(CCl)c4c3cc(NC(=O)OCc3ccc([N+](=O)[O-])cc3OCCCN(C)C)c3ccccc43)[nH]c2c(OC)c1OC (stereo not given) ; IC50 = 269

Notebook: COc1cc2cc(C(=O)N3CC(CCl)c4c3cc(NC(=O)OCc3ccc([N+](=O)[O-])cc3OCC(O)CO)c3ccccc43)[nH]c2c(OC)c1OC (stereo not given) , IC50 read as 129

// IC50 value for COc1cc([N+](=O)[O-])ccc1COC(=O)Nc1cc2c(c3ccccc13)C(CCl)CN2C(=O)c1cc2cc(OC)c(OC)c(OC)c2[nH]1 (stereo not given) : 141

Reported IC50 for COc1cc([N+](=O)[O-])ccc1COC(=O)Nc1ccc(COC(=O)Nc2cc3c(c4ccccc24)C(CCl)CN3C(=O)c2cc3cc(OC)c(OC)c(OC)c3[nH]2)cc1 (stereo not given) was 295

compound COc1cc2cc(C(=O)N3CC(CCl)c4c3cc(N)c3ccccc43)[nH]c2c(OC)c1OC (stereo not given) , IC50 observed: 1.6

# IC50 of CN(C)CCOc1ccc2[nH]c(C(=O)N3CC(CCl)c4c3cc(NC(=O)OCc3ccc([N+](=O)[O-])cc3)c3ccccc43)cc2c1 (stereo not given) = 403

So, CNc1cc2c(c3ccccc13)C(CCl)CN2C(=O)c1cc2cc(OC)c(OC)c(OC)c2[nH]1 (stereo not given) ? Its IC50 was 0.2

====

- Assay Details: Partition coefficient (logP)
- Format: physicochemical
- Experimental Conditions: octanol/water; read-out: logP
Output Criterion met for logP not less than 5; output Criterion not met otherwise.

The following molecules have reported results that may help.
COc1cc2cc(C(=O)N3CC(CCl)c4c3cc(NC(=O)OCc3ccc([N+](=O)[O-])cc3OCCCN3CCOCC3)c3ccccc43)[nH]c2c(OC)c1OC (configuration not stated) : Criterion not met
COc1cc([N+](=O)[O-])ccc1COC(=O)Nc1ccc(COC(=O)Nc2cc3c(c4ccccc24)C(CCl)CN3C(=O)c2cc3cc(OC)c(OC)c(OC)c3[nH]2)cc1 (configuration not stated) : Criterion met
CNc1cc2c(c3ccccc13)C(CCl)CN2C(=O)c1cc2cc(OC)c(OC)c(OC)c2[nH]1 (configuration not stated) : Criterion not met
COCCOc1cc([N+](=O)[O-])ccc1COC(=O)Nc1cc2c(c3ccccc13)C(CCl)CN2C(=O)c1cc2cc(OC)c(OC)c(OC)c2[nH]1 (configuration not stated) : Criterion not met

Switching to the query record.
Reported logP reaches at least 5 for COc1cc([N+](=O)[O-])ccc1COC(=O)Nc1cc2c(c3ccccc13)C(CCl)CN2C(=O)c1cc2cc(OC)c(OC)c(OC)c2[nH]1 (configuration not stated) ?
Criterion not met

====

The compounds listed here are annotated with their Ratio.
- Test system: Mammary carcinoma cell line
- Assay Details: Ratio of cytotoxicity in non-NTR-expressing EMT6 compared to that in NTR-expressing EMT6.
- Type: functional, Mus musculus
Please respond with just the number, no unit label.

Some solved cases for reference:
COc1cc([N+](=O)[O-])ccc1COC(=O)Nc1cc2c(c3ccccc13)C(CCl)CN2C(=O)c1cc2cc(OC)c(OC)c(OC)c2[nH]1 (configuration not stated) : 108
NC(=O)c1cc(N(CCBr)CCBr)c([N+](=O)[O-])cc1[N+](=O)[O-] : 1380
COc1cc([N+](=O)[O-])ccc1COC(=O)Nc1ccc(COC(=O)Nc2cc3c(c4ccccc24)C(CCl)CN3C(=O)c2cc3cc(OC)c(OC)c(OC)c3[nH]2)cc1 (configuration not stated) : 1.8
COCCOc1cc([N+](=O)[O-])ccc1COC(=O)Nc1cc2c(c3ccccc13)C(CCl)CN2C(=O)c1cc2cc(OC)c(OC)c(OC)c2[nH]1 (configuration not stated) : 78
COc1cc2cc(C(=O)N3CC(CCl)c4c3cc(NC(=O)OCc3ccc([N+](=O)[O-])cc3OCCO)c3ccccc43)[nH]c2c(OC)c1OC (configuration not stated) : 104

Record CN(C)CCOc1ccc2[nH]c(C(=O)N3CC(CCl)c4c3cc(NC(=O)OCc3ccc([N+](=O)[O-])cc3)c3ccccc43)cc2c1 (configuration not stated) / Mammary carcinoma cell line, Ratio recorded as 31

Item COc1cc2cc(C(=O)N3CC(CCl)c4c3cc(NC(=O)OCc3ccc([N+](=O)[O-])cc3OCCCN(C)C)c3ccccc43)[nH]c2c(OC)c1OC (configuration not stated) ; assay system Mammary carcinoma cell line; Ratio reported as 3.4

====

- System: Mammary carcinoma cell line
- Assay Details: Ratio of cytotoxicity in non-NTR-expressing EMT6 compared to that in NTR-expressing EMT6.
- Format: functional, Mus musculus
Note to self: class labels come from recorded Ratio, ranges listed here: lower range = under 6, middle range = from 6 up to 30, upper range = 30 and over

Answered cases to consult:
COc1cc2cc(C(=O)N3CC(CCl)c4c3cc(N)c3ccccc43)[nH]c2c(OC)c1OC (stereo not given) : lower range
COc1cc2cc(C(=O)N3CC(CCl)c4c3cc(N(C)C(=O)OCc3ccc([N+](=O)[O-])cc3)c3ccccc43)[nH]c2c(OC)c1OC (stereo not given) : middle range
CNc1cc2c(c3ccccc13)C(CCl)CN2C(=O)c1cc2cc(OC)c(OC)c(OC)c2[nH]1 (stereo not given) : lower range
COc1cc2cc(C(=O)N3CC(CCl)c4c3cc(NC(=O)OCc3ccc([N+](=O)[O-])cc3OCCCO)c3ccccc43)[nH]c2c(OC)c1OC (stereo not given) : upper range
NC(=O)c1cc(N2CC2)c([N+](=O)[O-])cc1[N+](=O)[O-] : upper range

Dear colleague, I would appreciate it if you could identify the bin for COc1cc2cc(C(=O)N3CC(CCl)c4c3cc(NC(=O)OC(C)c3ccc([N+](=O)[O-])cc3)c3ccccc43)[nH]c2c(OC)c1OC (stereo not given) and reply at your convenience.
middle range

Tag the class for CN(C)CCOc1ccc2[nH]c(C(=O)N3CC(CCl)c4c3cc(N)c3ccccc43)cc2c1 (stereo not given)
lower range

For COc1cc2cc(C(=O)N3CC(CCl)c4c3cc(NC(=O)OCc3ccc([N+](=O)[O-])cc3)c3ccccc43)[nH]c2c(OC)c1OC (stereo not given) , which Ratio bin applies?
upper range

# bin label for COc1cc2cc(C(=O)N3CC(CCl)c4c3cc(NC(=O)OCc3ccc([N+](=O)[O-])cc3OCC(O)CO)c3ccccc43)[nH]c2c(OC)c1OC (stereo not given)
middle range

====

- Test system: V79
- Assay Details: Cytotoxicity in non-NTR-expressing Chinese hamster fibroblast (V79).
- Type: functional, cell-based
- Experimental Conditions: Cricetulus griseus
Attribute Measured: IC50 (nM)
Answer format: numeric, nM implied, no suffix.

Value of IC50 reported for the compound CN(C)CCOc1ccc2[nH]c(C(=O)N3CC(CCl)c4c3cc(N)c3ccccc43)cc2c1 (stereo not given) is 2.6

IC50 for COc1cc([N+](=O)[O-])ccc1COC(=O)Nc1cc2c(c3ccccc13)C(CCl)CN2C(=O)c1cc2cc(OC)c(OC)c(OC)c2[nH]1 (stereo not given) is 39

The recorded IC50 for entry COc1cc2cc(C(=O)N3CC(CCl)c4c3cc(NC(=O)OCc3ccc([N+](=O)[O-])cc3OCCCN3CCOCC3)c3ccccc43)[nH]c2c(OC)c1OC (stereo not given) equals 20

The recorded IC50 for CN(C)CCOc1ccc2[nH]c(C(=O)N3CC(CCl)c4c3cc(NC(=O)OCc3ccc([N+](=O)[O-])cc3)c3ccccc43)cc2c1 (stereo not given) is 157
